PROCEDURE TEXT: AUC in rat at 10 mg/kg, iv
Type: ADME, organism-based
Parameters: dose 10 mg/kg, route intravenous
CONDITION CONTEXT: plasma

| CHEMICAL STRING | AUC / ng·h/mL |
| --- | --- |
| CNCC[C@@H](c1ccc(Cl)c(Cl)c1)n1nnc(C)n1 | 3830 |

====

List of half-life values.
PROCEDURE TEXT: Half life in rat liver microsomes
Format: ADME, Microsome

| COMPOUND | half-life |
| --- | --- |
| CNCC[C@@H](c1ccc(Cl)c(Cl)c1)n1nnc(C)n1 | 56 min |
| CNCCC(c1ccc2cc(F)ccc2c1)n1nnc(C)n1 (racemic) | 27 min |
| CNCCC(c1ccc2cc(F)ccc2c1)n1ncnn1 (racemic) | 29 min |
| CNCCC(c1ccc(Cl)c(Cl)c1)n1ncnn1 (racemic) | > 60 min |
| CN(C)CCC(c1ccc2cc(F)ccc2c1)n1ncnn1 (racemic) | 3 min |
| CN(C)CCC(c1ccc2ccccc2c1)n1ncnn1 (racemic) | 3 min |
| CN(C)CCC(c1ccc(Cl)c(Cl)c1)n1ncnn1 (racemic) | 3 min |
| CNCCC(c1ccc2ccccc2c1)n1ncnn1 (racemic) | 12 min |

Entry source: ChEMBL document CHEMBL1221386
